molecular target: egg albumin (Gallus gallus, UniProt P01012); test: Albumin denaturation assay; type: biochemical, hen; details: 6.25 µM; mean ± SD (n = 3); read-out: Percentage inhibition of denaturation of albumin
Sequence (P01012 2-386): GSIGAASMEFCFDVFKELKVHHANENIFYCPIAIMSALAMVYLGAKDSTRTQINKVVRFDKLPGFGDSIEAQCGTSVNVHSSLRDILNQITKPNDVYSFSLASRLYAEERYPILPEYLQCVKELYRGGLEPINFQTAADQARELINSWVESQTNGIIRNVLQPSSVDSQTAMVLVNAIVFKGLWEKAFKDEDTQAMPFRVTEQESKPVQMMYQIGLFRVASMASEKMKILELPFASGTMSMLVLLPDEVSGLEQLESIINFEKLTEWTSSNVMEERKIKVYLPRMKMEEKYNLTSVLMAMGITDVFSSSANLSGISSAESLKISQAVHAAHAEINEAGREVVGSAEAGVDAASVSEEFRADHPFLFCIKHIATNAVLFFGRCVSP
Please provide measured inhibition at 6.25 µM for the entries that follow.

IN: Entry `C=CCc1ccc(OCC(=O)Nc2ccccc2)c(OC)c1` has what inhibition at 6.25 µM?
OUT: 1.67%

IN: Entry `C=CCc1ccc(OCC(=O)Nc2cccc(Cl)c2)c(OC)c1` has what inhibition at 6.25 µM?
OUT: 5.49%

IN: Entry `C=CCc1ccc(OCC(=O)Nc2ccccc2Cl)c(OC)c1` has what inhibition at 6.25 µM?
OUT: 7.74%

IN: Entry `C=CCc1ccc(OCC(=O)Nc2ccc([N+](=O)[O-])cc2)c(OC)c1` has what inhibition at 6.25 µM?
OUT: 2.06%

IN: Entry `C=CCc1ccc(OCC(=O)Nc2cccc(C(F)(F)F)c2)c(OC)c1` has what inhibition at 6.25 µM?
OUT: 4.21%

IN: Entry O=C(O)Cc1ccccc1Nc1c(Cl)cccc1Cl [Standard Diclofenac, Diclofenac, reference compound] has what inhibition at 6.25 µM?
OUT: 10.2%

IN: Entry `C=CCc1ccc(OCC(=O)Nc2ccccc2C)c(OC)c1` has what inhibition at 6.25 µM?
OUT: 1.77%

Attribution: paper PMC10180488
